Test system: heterotetrameric CNGA2:CNGA4:CNGB1b channels (Rattus norvegicus, UniProt A0A8I5ZN27+Q00195+Q64359)
Construct: expressed in transfected cells; host or cells: Xenopus laevis oocytes co-injected with cRNAs (2:1:1); inside-out patches
Sequence (Q00195 whole entry): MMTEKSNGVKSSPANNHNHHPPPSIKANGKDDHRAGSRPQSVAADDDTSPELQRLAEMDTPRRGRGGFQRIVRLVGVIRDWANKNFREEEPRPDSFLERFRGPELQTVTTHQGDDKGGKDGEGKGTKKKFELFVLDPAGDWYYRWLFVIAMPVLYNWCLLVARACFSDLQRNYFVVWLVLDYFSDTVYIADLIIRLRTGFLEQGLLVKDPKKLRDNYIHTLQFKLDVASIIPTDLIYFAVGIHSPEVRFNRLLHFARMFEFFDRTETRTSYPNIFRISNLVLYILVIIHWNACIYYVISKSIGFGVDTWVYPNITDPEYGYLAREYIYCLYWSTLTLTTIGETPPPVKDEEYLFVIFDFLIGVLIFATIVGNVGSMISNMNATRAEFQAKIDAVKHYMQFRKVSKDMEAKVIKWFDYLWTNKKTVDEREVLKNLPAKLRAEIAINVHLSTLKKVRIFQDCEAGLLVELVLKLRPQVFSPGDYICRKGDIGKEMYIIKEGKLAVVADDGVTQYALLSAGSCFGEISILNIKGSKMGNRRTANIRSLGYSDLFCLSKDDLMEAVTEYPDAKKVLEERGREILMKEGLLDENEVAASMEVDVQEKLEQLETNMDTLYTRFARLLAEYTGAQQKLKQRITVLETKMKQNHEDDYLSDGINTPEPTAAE
Sequence (Q64359 whole entry): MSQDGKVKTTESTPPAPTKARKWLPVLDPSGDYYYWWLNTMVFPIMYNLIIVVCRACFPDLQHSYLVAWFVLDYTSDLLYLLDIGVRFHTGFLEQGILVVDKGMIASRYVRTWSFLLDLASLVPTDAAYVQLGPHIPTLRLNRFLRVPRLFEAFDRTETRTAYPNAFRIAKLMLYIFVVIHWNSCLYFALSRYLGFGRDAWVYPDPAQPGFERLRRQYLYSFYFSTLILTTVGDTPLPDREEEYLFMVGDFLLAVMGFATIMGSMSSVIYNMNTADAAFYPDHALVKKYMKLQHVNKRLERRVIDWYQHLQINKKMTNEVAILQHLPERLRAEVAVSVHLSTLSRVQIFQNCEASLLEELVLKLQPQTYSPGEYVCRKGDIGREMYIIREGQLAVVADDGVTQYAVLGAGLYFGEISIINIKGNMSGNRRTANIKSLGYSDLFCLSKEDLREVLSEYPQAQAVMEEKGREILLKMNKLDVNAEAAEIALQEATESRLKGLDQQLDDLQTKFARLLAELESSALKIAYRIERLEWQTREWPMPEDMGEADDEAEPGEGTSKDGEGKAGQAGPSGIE
Sequence (A0A8I5ZN27 1-858 isoform A0A8I5ZN27-2): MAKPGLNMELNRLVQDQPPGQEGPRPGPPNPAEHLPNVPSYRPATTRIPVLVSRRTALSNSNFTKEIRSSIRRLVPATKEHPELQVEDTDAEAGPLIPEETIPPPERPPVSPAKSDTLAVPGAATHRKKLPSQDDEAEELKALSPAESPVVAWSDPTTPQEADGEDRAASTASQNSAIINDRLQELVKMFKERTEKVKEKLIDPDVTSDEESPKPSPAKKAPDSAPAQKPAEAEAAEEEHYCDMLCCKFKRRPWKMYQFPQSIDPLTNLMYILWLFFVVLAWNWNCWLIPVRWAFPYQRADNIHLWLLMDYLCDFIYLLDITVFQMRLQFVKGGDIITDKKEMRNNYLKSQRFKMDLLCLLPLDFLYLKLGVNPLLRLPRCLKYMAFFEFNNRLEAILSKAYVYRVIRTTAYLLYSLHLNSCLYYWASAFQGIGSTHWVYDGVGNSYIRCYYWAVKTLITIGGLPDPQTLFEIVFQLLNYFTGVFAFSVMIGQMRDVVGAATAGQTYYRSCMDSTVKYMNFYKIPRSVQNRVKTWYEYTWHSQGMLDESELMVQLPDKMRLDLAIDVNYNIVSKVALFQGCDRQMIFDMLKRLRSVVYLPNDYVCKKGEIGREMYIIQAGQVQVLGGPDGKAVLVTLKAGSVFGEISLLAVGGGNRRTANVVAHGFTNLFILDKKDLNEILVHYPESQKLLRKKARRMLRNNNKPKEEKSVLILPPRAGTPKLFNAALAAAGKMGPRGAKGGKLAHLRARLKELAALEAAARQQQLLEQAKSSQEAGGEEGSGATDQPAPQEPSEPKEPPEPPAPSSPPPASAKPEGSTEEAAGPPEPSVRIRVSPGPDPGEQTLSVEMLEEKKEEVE
Protocol details: Concentration-activation relationship of heterotetrameric CNGA2:CNGA4:CNGB1b channels, inside-out patches of Xenopus oocytes
Format: cell-based
Condition parameters: heterotetrameric CNGA2:CNGA4:CNGB1b channels; late current at +10 mV; mean
Quick rule for you: EC50 under 1 µM gets met, anything else gets not met.

[Q] I'd appreciate it if you could check whether CC(=O)NCCOCCOCCSc1nc2c(=O)[nH]c(N)nc2n1C1OC2COP(=O)(O)OC2C1O (stereo not shown) [8G, 8-(Ac)APT-cGMP] has EC50 smaller than 1 µM.
[A] not met

[Q] What about Nc1nc2c(ncn2C2OC3COP(=O)(O)OC3C2O)c(=O)[nH]1 (stereo not shown) [1G, cGMP, reference compound] ?
[A] not met

[Q] Again, but for CC(=O)NCCOCCOCCSc1nc2c(N)ncnc2n1C1OC2COP(=O)(O)OC2C1O (stereo not shown) [8A, 8-(Ac)APT-cAMP]
[A] not met

[Q] // repeat for CC(=O)NCCOCCOCCC(=O)NCCSc1nc2c(N)ncnc2n1C1OC2COP(=O)(O)OC2C1O (stereo not shown) [9A, 8-(Ac)APET-cAMP] and report
[A] not met

[Q] Note, next up: CC(=O)NCCCCCCSc1nc2c(N)ncnc2n1C1OC2COP(=O)(O)OC2C1O (stereo not shown) [5A, 8-(Ac)AHT-cAMP]
[A] met

[Q] Another compound to look at: NCCCCCCSc1nc2c(N)ncnc2n1C1OC2COP(=O)(O)OC2C1O (stereo not shown) [4A, 8-AHT-cAMP]
[A] not met

[Q] Same read-out for CC(=O)NCCSc1nc2c(N)ncnc2n1C1OC2COP(=O)(O)OC2C1O (stereo not shown) [3A, 8-(Ac)AET-cAMP] ?
[A] not met

[Q] Now the compound CC(=O)NCC(=O)NCC(=O)NCCSc1nc2c(N)ncnc2n1C1OC2COP(=O)(O)OC2C1O (stereo not shown) [11A, 8-(Ac)AGGET-cAMP]
[A] not met

[Q] Similarly, CC(=O)NCCOCCOCCC(=O)NCCSc1nc2c(=O)[nH]c(N)nc2n1C1OC2COP(=O)(O)OC2C1O (stereo not shown) [9G, 8-(Ac)APET-cGMP] ?
[A] not met

[Q] Field entry: CC(=O)NCC(=O)NCCSc1nc2c(N)ncnc2n1C1OC2COP(=O)(O)OC2C1O (stereo not shown) [10A, 8-(Ac)AGET-cAMP]
[A] not met

[Q] Do the same for CC(=O)NCCCCCCCCCCSc1nc2c(N)ncnc2n1C1OC2COP(=O)(O)OC2C1O (stereo not shown) [7A, 8-(Ac)ADT-cAMP] please
[A] met

[Q] Would you mind doing CC(=O)NCCCCCCCCCCSc1nc2c(=O)[nH]c(N)nc2n1C1OC2COP(=O)(O)OC2C1O (stereo not shown) [7G, 8-(Ac)ADT-cGMP] as well?
[A] met
